System: SW-620 colon
procedure text: NCI tumour cell line growth inhibition, 48 h; in the data active means GI50 below about 0.43 µM; inactive means the rest
Field 'call' accepts active, inactive

Use these answered entries as a reference point.
C=CC[Se]C(=O)Cc1c(C)n(C(=O)c2ccc(Cl)cc2)c2ccc(OC)cc12 | inactive
CCOC(=O)N1C/C(=C/c2ccc(OC)cc2)C(=O)/C(=C/c2ccc(OC)cc2)C1 | inactive
COc1ccc(NC(=O)c2sc3nc(C)c(C(O)c4ccc(OC)cc4)cc3c2N)cc1 (stereo not given) | inactive
CC(C)=CCC/C(C)=C/CC/C(=C/COP(=O)(OCc1ccc([N+](=O)[O-])o1)N(C)CCCCCl)CC=C(C)C (stereo not given) | inactive
CCn1c(-c2nonc2N)nc2c(C#CC(C)(C)O)nc(O[C@@H](CN)c3ccccc3)cc21 | active
C[C@@H]1CC[C@H]2C(COC/C=C/COCC3=C(C(F)(F)F)O[C@@H]4O[C@@]5(C)CC[C@H]6[C@H](C)CC[C@@H]3[C@@]46OO5)=C(C(F)(F)F)O[C@@H]3O[C@@]4(C)CC[C@@H]1[C@]32OO4 | active

Enquiry: Identify the outcome logged in this assay for the compound shown: CCCCCCCCCCCCOC1C(C(COC2OC(C(O)CN3CCCCC3)C3OC(C)(C)OC23)NC(=O)Nc2ccccc2)OC2OC(C)(C)OC21 (stereo not given)
Return: inactive

Enquiry: Identify the outcome logged in this assay for the compound shown: O=C1C=CN(C2OC(CO)C(O)C2O)C(=O)C1 (stereo not given)
Return: inactive

Enquiry: Identify the outcome logged in this assay for the compound shown: "COC(=O)[C@@H](Cc1c[nH]c2ccccc12)NC(=O)/C=C/c1ccccc1"
Return: inactive

Enquiry: Identify the outcome logged in this assay for the compound shown: CS(=O)c1ccc(-c2nc(-c3ccc(F)cc3)c(-c3ccncc3)[nH]2)cc1 (stereo not given)
Return: inactive

Enquiry: Identify the outcome logged in this assay for the compound shown: "O=C(NCCCNC(=O)OCc1ccc2c(Br)cc(Br)c(O)c2n1)OCc1ccc2c(Br)cc(Br)c(O)c2n1"
Return: inactive

Enquiry: Identify the outcome logged in this assay for the compound shown: "O=C(Nc1cccc2cccnc12)c1ccc(N2C(=O)[C@@H]3[C@H](C2=O)[C@@H]2C=C[C@H]3C2)cc1"
Return: inactive

Enquiry: Identify the outcome logged in this assay for the compound shown: "CN(C)CCOc1nc2c3cccnc3cc(-c3cccc(Cl)c3)c2c2ncccc12"
Return: inactive

----------
Tested on: CAKI-1 renal
procedure text: NCI tumour cell line growth inhibition, 48 h
measurement type: TGI (µM)
Quick note: give the figure in µM, leave out the unit.

O=C1/C(=C/c2ccc([N+](=O)[O-])s2)Oc2ccccc21 | 5.22

API: the following record is the query input.
Enquiry: Specify reported TGI for the compound shown: "COc1cccc(/C(C=O)=C(\Cl)c2ccc(OC)c(OC)c2)c1"
Return: 45.1

----------
Test system: MDA-MB-435
Field 'call' accepts YES (active), NO (inactive)

Use these answered entries as a reference point.
COc1ccc2c(c1OC)-c1c(c3ccc([N+](=O)[O-])cc3c(=O)n1CCCN=[N+]=[N-])C2=O | NO
COc1ccc(OC)c(-c2cc(-c3ccccc3)nn2-c2ccc(S(N)(=O)=O)cc2)c1 | NO
COc1cccc2c1cc([N+](=O)[O-])c1c(C(=O)O)cc3c(c12)OCO3 | NO

Enquiry: Identify the outcome logged in this assay for the molecule shown: "CCCC[P+](c1ccccc1)(c1ccccc1)c1ccccc1"
Return: NO

Enquiry: Identify the outcome logged in this assay for the molecule shown: "BrC(Br)(Br)c1cnc2ccccc2n1"
Return: NO

Enquiry: Identify the outcome logged in this assay for the molecule shown: "COc1cc(-c2nn(C(=O)NS(=O)(=O)c3ccc(C)cc3)cc2-c2ccncc2)ccc1Cl"
Return: NO

----------
Tested on: SF-539 CNS
procedure text: NCI tumour cell line growth inhibition, 48 h
measurement type: TGI

Reference set, count: 5
O=c1n(-c2ccccc2)c(=O)n2n1C1CCC2CC1 | > 100 µM
CCOC(=O)C1=C(C)N(C)C(=S)NC1c1cccc(O)c1 (configuration not stated) | > 100 µM
CC(=O)c1c(O)ccc2c1CC(CC=O)O2 (configuration not stated) | > 100 µM
COc1ccc(/C=C/c2nc(=S)[nH][nH]2)cc1 | > 100 µM
CN1CC2=C(NC(=S)NC2c2ccc(Cl)cc2)/C(=C/c2ccc(Cl)cc2)C1 (configuration not stated) | 62.9 µM

Enquiry: Specify reported TGI for the compound shown: "O=C(NCCN1CCOCC1)Nc1ccc(-c2cc3c(Nc4ccc(Oc5cccc(C(F)(F)F)c5)c(Cl)c4)ncnc3s2)cc1"
Return: 2.01 µM

Enquiry: Specify reported TGI for the compound shown: "CCN(CC)Cc1ccc2cccnc2c1O"
Return: 20.7 µM

Enquiry: Specify reported TGI for the compound shown: "Cc1c2ccnc(-c3ccccc3)c2cc2c1[nH]c1ccccc12"
Return: 7 µM

Enquiry: Specify reported TGI for the compound shown: "C[n+]1cccc(/C=C/c2ccc3cccc(O)c3n2)c1"
Return: > 100 µM

Enquiry: Specify reported TGI for the compound shown: O=C(CC1(O)C(=O)Nc2ccc(Br)cc21)c1ccc(C(=O)NCC2CCC3(CC2)OOC2(CCCCC2)OO3)cc1 (configuration not stated)
Return: 17.6 µM

Enquiry: Specify reported TGI for the compound shown: "O=C1SC(c2ccc(Cl)cc2)(c2ccc(Cl)cc2)c2ccccc21"
Return: > 100 µM

Enquiry: Specify reported TGI for the compound shown: CC(=O)OCC1OC(n2c3c(c(-c4ccc(Cl)cc4)c(C#N)c2=S)C(=O)CC(C)(C)C3)C(OC(C)=O)C(OC(C)=O)C1OC(C)=O (configuration not stated)
Return: > 68.7 µM

----------
Test system: KM12 colon
procedure text: NCI tumour cell line growth inhibition, 48 h
measurement type: TGI

Cn1c(=O)c2c(nc(C[N+]3([O-])CCOCC3)n2C)n(C)c1=O | > 100 µM

Enquiry: Specify reported TGI for the compound shown: "O=C(O)c1cc(-c2ccccc2O)nc2ccccc12"
Return: > 100 µM

Enquiry: Specify reported TGI for the compound shown: "CCCCCC(=O)OCC(=O)O[C@@H]1C[C@]2(C(C)C)O[C@@]1(C)[C@@H]1CC[C@@H](C)[C@H]1[C@@H]2OC(=O)/C=C/c1ccccc1"
Return: > 100 µM

Enquiry: Specify reported TGI for the compound shown: CCCCN(CCCC)CC(C)(C)C(O)c1ccc(OC)c2ccccc12 (centres undefined)
Return: 16.5 µM

Enquiry: Specify reported TGI for the compound shown: CCCC(=O)N/S(=N/S(=O)(=O)c1ccc(Cl)cc1)C(Cl)(Cl)Cl (centres undefined)
Return: > 100 µM

Enquiry: Specify reported TGI for the compound shown: "Cc1ccc(C)c(/C(=N\N=C(N)N)C2CC2)c1"
Return: > 100 µM

----------
Entries and their TGI values follow.
Tested on: OVCAR-8 ovarian
procedure text: NCI tumour cell line growth inhibition, 48 h

CC(NC(=O)/C(C#N)=C/c1ccc2[nH]ccc2c1)c1ccccc1 (centres undefined) | 48.8 µM

Enquiry: Specify reported TGI for the compound shown: "COC(=O)[C@@H](Cc1c[nH]c2ccccc12)NC(=O)/C=C/c1ccccc1"
Return: > 100 µM

Enquiry: Specify reported TGI for the compound shown: "Cc1cnc2[nH]c(-c3ccc(F)cc3)cc(=O)c2c1"
Return: > 100 µM

Enquiry: Specify reported TGI for the compound shown: "CS(=O)(=O)OCCN(CCOS(C)(=O)=O)c1ccc(C=Nc2ccc3oc(=O)ccc3c2)cc1"
Return: 49.9 µM

Enquiry: Specify reported TGI for the compound shown: "O=C(CSCC(=O)N/N=C/c1cccc(OCc2ccccc2)c1)N/N=C/c1cccc(OCc2ccccc2)c1"
Return: > 100 µM

Enquiry: Specify reported TGI for the compound shown: "O=C(CCC(=O)N/N=C/c1ccccc1O)N/N=C/c1ccccc1O"
Return: > 100 µM

Enquiry: Specify reported TGI for the compound shown: "CCOC(=O)c1nnsc1NC(=O)Nc1ccc(Cl)cc1"
Return: 41.2 µM

Enquiry: Specify reported TGI for the compound shown: C/C(=N\NS(=O)(=O)c1ccc(C)cc1)C(CN(C)C)C(c1ccccc1)c1c(O)c2ccccc2oc1=O (centres undefined)
Return: > 100 µM

Enquiry: Specify reported TGI for the compound shown: "COc1ccc2c(c1OC)-c1c(c3ccc([N+](=O)[O-])cc3c(=O)n1CCCN=[N+]=[N-])C2=O"
Return: > 100 µM

Enquiry: Specify reported TGI for the compound shown: "O=C1SC(c2ccc(Cl)cc2)(c2ccc(Cl)cc2)c2ccccc21"
Return: > 100 µM

Enquiry: Specify reported TGI for the compound shown: CC1(C)[C@@H]2C[C@H]1C(Cc1ccc(C[C@H]3c4cc(-c5ccccn5)ncc4[C@H]4C[C@@H]3C4(C)C)cc1)c1cc(-c3ccccn3)ncc12 (some centres undefined)
Return: 15.8 µM

Enquiry: Specify reported TGI for the compound shown: "Oc1ccc(Br)cc1/C=N/NC(=S)NC12CC3CC(CC(C3)C1)C2"
Return: 4.4 µM

Enquiry: Specify reported TGI for the compound shown: "C=C(C)[C@@H]1CC[C@@H](C)[C@](O)([C@@H]2C[C@@H]([C@H](COC(=O)c3ccccc3)OC(=O)c3ccccc3)OC2=O)C1"
Return: > 100 µM

Enquiry: Specify reported TGI for the compound shown: c1ccc2cc(OCC3CO3)c(OCC3CO3)cc2c1 (centres undefined)
Return: 12.2 µM

Enquiry: Specify reported TGI for the compound shown: COc1ccc(-c2c3c(n(C4OC(CO)C(O)C(O)C4O)c(=S)c2C#N)CC(C)(C)CC3=O)cc1 (centres undefined)
Return: > 100 µM

Enquiry: Specify reported TGI for the compound shown: CN(C)c1ncnc2c1ncn2C1C=CC(COS(N)(=O)=O)C1 (centres undefined)
Return: > 100 µM

Enquiry: Specify reported TGI for the compound shown: "O=[N+]([O-])c1cc(Cl)cc2c1nc(NCCO)c1ccccc12"
Return: > 100 µM

Enquiry: Specify reported TGI for the compound shown: "COc1cccc2c1cc([N+](=O)[O-])c1c(C(=O)O)cc3c(c12)OCO3"
Return: > 100 µM

Enquiry: Specify reported TGI for the compound shown: "C/C(=N\NC(=O)/C(C#N)=C\c1ccc(N(CCC#N)CCC#N)cc1)c1ccccc1"
Return: > 10 µM
